The measured values listed here are drawn from paper PMC9870012.

Reported pKi values, human meprin α (Homo sapiens, UniProt Q16819).
Answers are plain numbers, as −log10 of the molar value.

// for each compound below, give its pKi
1. O=C(Cc1c(-c2ccc3c(c2)OCO3)n[nH]c1-c1ccccc1)NO [14f]
2. O=C(Cc1c(-c2ccc(Cl)c(O)c2F)n[nH]c1-c1ccc(Cl)c(O)c1F)NO [16d]
3. N#Cc1cccc(-c2n[nH]c(-c3ccccc3)c2CC(=O)NO)c1 [14h]
4. COc1cccc(-c2n[nH]c(-c3ccccc3)c2CC(=O)NO)c1 [14d]
5. Cn1nc(-c2ccccc2)c(CC(=O)NO)c1-c1ccccc1 [21a]

Data returned:
1. 8.96
2. 8.38
3. 8.32
4. 8.96
5. 8.30

---

Target sequence: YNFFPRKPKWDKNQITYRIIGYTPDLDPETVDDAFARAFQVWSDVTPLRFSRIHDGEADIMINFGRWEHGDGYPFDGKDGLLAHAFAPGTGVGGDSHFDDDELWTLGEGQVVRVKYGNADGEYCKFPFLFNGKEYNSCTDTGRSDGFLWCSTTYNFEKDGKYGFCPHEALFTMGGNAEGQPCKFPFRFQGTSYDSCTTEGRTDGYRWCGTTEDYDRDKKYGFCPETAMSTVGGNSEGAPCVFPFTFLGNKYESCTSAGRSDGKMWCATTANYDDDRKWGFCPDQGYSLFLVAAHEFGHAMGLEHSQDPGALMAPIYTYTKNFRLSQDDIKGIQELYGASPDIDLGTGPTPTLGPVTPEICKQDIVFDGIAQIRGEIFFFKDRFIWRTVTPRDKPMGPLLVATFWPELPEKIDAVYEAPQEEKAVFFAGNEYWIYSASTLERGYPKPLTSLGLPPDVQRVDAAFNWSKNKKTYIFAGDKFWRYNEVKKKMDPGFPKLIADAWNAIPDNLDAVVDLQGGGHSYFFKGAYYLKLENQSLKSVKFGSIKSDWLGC
Assay Readout: IC50 (µM)
Numbers only, in µM.

Data request: Give a short answer stating reported IC50 for O=C(Cc1c(-c2ccc3c(c2)OCO3)n[nH]c1-c1ccccc1)NO [14f] .
Data returned: 5.3

---

Target Or Test System: human meprin α (Homo sapiens)
Type: biochemical
Protocol Conditions: meprin α over meprin β
Assay Readout: SF: selectivity factor (Ki(app) meprin β/Ki(app) meprin α)
Give bare numbers.

The following molecules have reported results that may help.
{"columns": ["Molecule", "Measured"],
 "data": [
  ["N#Cc1ccc(-c2n[nH]c(-c3ccccc3)c2CC(=O)NO)cc1 [14i]", 71],
  ["O=C(Cc1c(-c2ccc(C(=O)O)cc2)n[nH]c1-c1ccc(C(=O)O)cc1)NO [16c]", 2],
  ["O=C(Cc1c(Cc2ccccc2)n[nH]c1-c1ccccc1)NO [14b]", 25],
  ["O=C(Cc1c(-c2ccccc2)nn(-c2ccccc2)c1-c1ccccc1)NO [21b]", 167],
  ["O=C(Cc1c(-c2ccc(C(=O)O)cc2)n[nH]c1-c1ccc(Cl)c(O)c1F)NO [16h]", 1],
  ["O=C(Cc1c(-c2ccccc2)nn(Cc2ccc(Cl)c(O)c2F)c1-c1ccccc1)NO [21i]", 116],
  ["O=C(Cc1c([C@H]2CCCC[C@H]2C(=O)O)n[nH]c1-c1ccccc1)NO (relative stereo) [14q]", 127],
  ["O=C(Cc1c(-c2ccccc2)nn(Cc2cccc(C(=O)O)c2)c1-c1ccccc1)NO [21g]", 35]
]}

Data request: Fill in SF: selectivity factor (Ki(app) meprin β/Ki(app) meprin α) for record O=C(Cc1c(-c2cccc(C(=O)O)c2)n[nH]c1-c1ccc(Cl)c(O)c1F)NO [16i]
Data returned: 1

---

Target Or Test System: ADAM10 (Homo sapiens, UniProt O14672)
Sequence (O14672 214-748): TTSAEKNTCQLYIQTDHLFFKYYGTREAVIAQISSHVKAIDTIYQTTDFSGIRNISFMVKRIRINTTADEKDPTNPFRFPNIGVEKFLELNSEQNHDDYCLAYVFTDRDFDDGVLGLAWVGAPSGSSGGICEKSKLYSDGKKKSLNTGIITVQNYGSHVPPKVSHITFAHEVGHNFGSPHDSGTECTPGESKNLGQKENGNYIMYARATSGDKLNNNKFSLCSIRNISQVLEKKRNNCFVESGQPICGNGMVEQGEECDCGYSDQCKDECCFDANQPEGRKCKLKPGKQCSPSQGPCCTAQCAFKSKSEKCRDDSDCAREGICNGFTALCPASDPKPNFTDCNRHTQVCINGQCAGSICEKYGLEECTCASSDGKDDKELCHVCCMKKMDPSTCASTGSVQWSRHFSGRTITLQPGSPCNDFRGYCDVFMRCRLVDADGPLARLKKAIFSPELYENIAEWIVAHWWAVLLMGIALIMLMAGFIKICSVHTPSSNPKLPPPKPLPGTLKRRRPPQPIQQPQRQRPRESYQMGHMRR
Measurement Description: Off-target metalloprotease inhibition, ADAM10
Type: biochemical
Protocol Conditions: read-out: Residual activity ADAM10
Assay Readout: remaining activity at 10 µM

Examples from the recorded data:
{"columns": ["Compound", "Target Or Test System", "Measured"],
 "data": [
  ["COc1cccc(-c2n[nH]c(-c3ccccc3)c2CC(=O)NO)c1 [14d]", "ADAM10 (Homo sapiens, UniProt O14672)", "68%"],
  ["O=C(Cc1c(-c2ccccc2)nn(Cc2ccc(Cl)c(O)c2F)c1-c1ccccc1)NO [21i]", "ADAM10 (Homo sapiens, UniProt O14672)", "85%"],
  ["O=C(Cc1c(-c2cccc(C(=O)O)c2)n[nH]c1-c1cc(F)c(O)c(Cl)c1)NO [16j]", "ADAM10 (Homo sapiens, UniProt O14672)", "90%"],
  ["O=C(Cc1c(-c2ccccc2)nn(Cc2ccc3c(c2)OCO3)c1-c1ccccc1)NO [21f]", "ADAM10 (Homo sapiens, UniProt O14672)", "69%"]
]}

In the following, a different compound is considered.
Data request: Provide only the value of recorded remaining activity at 10 µM for O=C(Cc1c(-c2ccc3c(c2)OCO3)n[nH]c1-c1ccccc1)NO [14f]
Data returned: 59%

---

So I've got a bunch of molecules here, and I need their viability at 24 h, 30 µM values.
Measurement Description: Cell viability assay
Format: cell-based
Protocol Conditions: human, SH-SY5Y cells
Answers are plain numbers, in %.

{"columns": ["Molecule", "Measured"],
 "data": [
  ["O=C(Cc1c(-c2cccc(C(=O)O)c2)n[nH]c1-c1cc(F)c(O)c(Cl)c1)NO [16j]", 110],
  ["O=C(Cc1c(-c2ccccc2)nn(Cc2cccc(C(=O)O)c2)c1-c1ccccc1)NO [21g]", 85],
  ["COc1ccc(-c2n[nH]c(-c3ccccc3)c2CC(=O)NO)cc1OC [14g]", 85]
]}

Go through the items and report each one's viability at 24 h, 30 µM.
1. O=C(Cc1c(-c2ccccc2)nn(Cc2ccc3c(c2)OCO3)c1-c1ccccc1)NO [21f]
2. O=C(Cc1c(-c2ccc3c(c2)OCO3)n[nH]c1-c1ccccc1)NO [14f]

Data returned:
1: 88; 2: 90

---

Target protein (sequence): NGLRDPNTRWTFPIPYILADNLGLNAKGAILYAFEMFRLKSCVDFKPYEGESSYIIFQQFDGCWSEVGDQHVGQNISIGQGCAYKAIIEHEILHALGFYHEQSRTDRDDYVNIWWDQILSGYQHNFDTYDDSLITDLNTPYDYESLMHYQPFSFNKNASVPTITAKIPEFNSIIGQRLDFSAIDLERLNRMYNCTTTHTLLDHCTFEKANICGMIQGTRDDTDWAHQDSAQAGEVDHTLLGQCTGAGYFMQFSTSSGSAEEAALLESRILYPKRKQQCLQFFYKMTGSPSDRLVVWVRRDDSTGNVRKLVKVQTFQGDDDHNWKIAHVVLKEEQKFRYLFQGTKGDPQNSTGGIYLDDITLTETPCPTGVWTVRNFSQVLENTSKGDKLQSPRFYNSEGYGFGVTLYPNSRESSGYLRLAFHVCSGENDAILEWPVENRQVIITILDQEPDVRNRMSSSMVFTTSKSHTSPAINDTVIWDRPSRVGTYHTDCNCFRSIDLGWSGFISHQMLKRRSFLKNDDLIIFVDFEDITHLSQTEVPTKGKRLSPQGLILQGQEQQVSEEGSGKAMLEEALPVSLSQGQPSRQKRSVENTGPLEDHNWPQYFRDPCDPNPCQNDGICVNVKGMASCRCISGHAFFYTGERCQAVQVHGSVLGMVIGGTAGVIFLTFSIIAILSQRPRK
pKi: −log10 of the molar value.
Class (by pKi) -- lower segment = under 8, middle segment = from 8 up to 9, upper segment = 9 and over

Worked set:
{"columns": ["Compound", "Class Name"],
 "data": [
  ["O=C(Cc1c(C2CCCC2)n[nH]c1-c1ccccc1)NO [14c]", "middle segment"],
  ["O=C(Cc1c(-c2cccc(C(=O)O)c2)n[nH]c1-c1cc(F)c(O)c(Cl)c1)NO [16j]", "upper segment"],
  ["O=C(Cc1c([C@H]2CCCC[C@H]2C(=O)O)n[nH]c1-c1ccccc1)NO (relative stereo) [14q]", "upper segment"],
  ["O=C(Cc1c([C@@H]2CCCC[C@@H]2C(=O)O)n[nH]c1-c1cccc(C(=O)O)c1)NO (relative stereo) [16k]", "upper segment"],
  ["O=C(Cc1c(-c2ccccc2)nn(Cc2ccc(C(=O)O)cc2)c1-c1ccccc1)NO [21h]", "upper segment"],
  ["O=C(Cc1c(-c2ccc(C(=O)O)cc2)n[nH]c1-c1cccc(C(=O)O)c1)NO [16g]", "lower segment"],
  ["O=C(Cc1c(-c2ccc3c(c2)OCO3)n[nH]c1-c1cccc(C(=O)O)c1)NO [16e]", "middle segment"],
  ["O=C(Cc1c(-c2ccccc2)nn(-c2ccc(C(=O)O)cc2)c1-c1ccccc1)NO [21d]", "middle segment"]
]}

Data request: Using the reported pKi, which band applies to O=C(Cc1c(-c2ccc(C(=O)O)cc2)n[nH]c1-c1ccccc1)NO [14k] ?
Data returned: lower segment
